Listed next: entries and their corresponding IC50.
Target: DP4^84DEAV87 (substitution mutant of DPB1*04:01 with DPA1*01:03) expressed on K562 cells (Homo sapiens, UniProt P04440+P20036, G113D/G114E/M116V/P115A)
Construct: expressed in transfected cells; host or cells: K562 (human erythroleukemic cells without endogenous MHC class II, Ii or HLA-DM), retrovirally transduced, pMX vector
Sequence (P20036 29-260): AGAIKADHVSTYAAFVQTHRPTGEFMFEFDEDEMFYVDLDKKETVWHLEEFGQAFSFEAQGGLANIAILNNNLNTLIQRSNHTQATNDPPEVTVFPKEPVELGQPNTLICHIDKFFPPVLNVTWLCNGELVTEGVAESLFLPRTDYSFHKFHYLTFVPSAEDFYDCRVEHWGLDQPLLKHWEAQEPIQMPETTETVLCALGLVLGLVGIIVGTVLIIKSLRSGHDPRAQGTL
Sequence (P04440 30-258 G113D/G114E/P115A/M116V): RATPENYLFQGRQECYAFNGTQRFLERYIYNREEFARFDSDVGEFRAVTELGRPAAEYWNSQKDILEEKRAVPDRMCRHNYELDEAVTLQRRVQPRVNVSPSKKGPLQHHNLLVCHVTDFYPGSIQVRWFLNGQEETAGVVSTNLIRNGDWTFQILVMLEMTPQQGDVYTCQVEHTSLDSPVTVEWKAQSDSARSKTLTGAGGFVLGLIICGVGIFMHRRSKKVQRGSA
Test: cell-based
Assay type: binding
Ends that are not written are not given here.

Sequence Chain: KKLLTQHFVQENYLEY [MAGE-A3_243–258, reference compound]
IC50: 33.7 µM

Sequence Chain: LPKPPKPVSKMRMATPLLMQALPM [CLIP]
IC50: 6 µM
